Entry source: patent US20120239131A1

Entries and their Total Score
- Tested on: genes involved in the pathophysiology of AAA
- measurementProtocol: Drug inhibition effect on differentially expressed genes, overall
- Assay type: in vivo, ApoE−/− mice
- settings: sum of heat map grades over 25 genes; ApoE−/− + Ang II group scored 55
attributeMeasured: Total Score

[[record]]
molecule = "CCCc1nc2c(C)cc(-c3nc4ccccc4n3C)cc2n1Cc1ccc(-c2ccccc2C(=O)O)cc1 [Telmisartan]"
reportedvalue = 6

[[record]]
molecule = "CCCCC1=NC2(CCCC2)C(=O)N1Cc1ccc(-c2ccccc2-c2nnn[nH]2)cc1 [Irbesartan]"
reportedvalue = 7

[[record]]
molecule = "CC(C)n1c(/C=C/C(O)CC(O)CC(=O)O)c(-c2ccc(F)cc2)c2ccccc21 (stereo not shown) [Fluvastatin]"
reportedvalue = 45

[[record]]
molecule = "C[C@H]1c2cccc(O)c2C(=O)C2=C(O)[C@]3(O)C(=O)C(C(N)=O)=C(O)[C@@H](N(C)C)[C@@H]3[C@@H](O)[C@@H]21 [Doxycycline]"
reportedvalue = 53


----------
- System: CCR5
- measurementProtocol: Aortic mural gene expression, RT-PCR (TLDA)
- Assay type: in vivo, ApoE−/− mice
- settings: fold change over ApoE−/− control; aorta, 28 days Ang II infusion
attributeMeasured: CCR5 expression

[[record]]
compound = "CC(C)n1c(/C=C/C(O)CC(O)CC(=O)O)c(-c2ccc(F)cc2)c2ccccc21 (stereo not shown)"
reportedvalue = "+++ (3.1 to 10 = +++)"

[[record]]
compound = "CCCc1nc2c(C)cc(-c3nc4ccccc4n3C)cc2n1Cc1ccc(-c2ccccc2C(=O)O)cc1"
reportedvalue = "− (0 to 1 = −)"

[[record]]
compound = "C[C@H]1c2cccc(O)c2C(=O)C2=C(O)[C@]3(O)C(=O)C(C(N)=O)=C(O)[C@@H](N(C)C)[C@@H]3[C@@H](O)[C@@H]21"
reportedvalue = "+++ (3.1 to 10 = +++)"

[[record]]
compound = "CCCCC1=NC2(CCCC2)C(=O)N1Cc1ccc(-c2ccccc2-c2nnn[nH]2)cc1"
reportedvalue = "− (0 to 1 = −)"


----------
- System: Osteopontin
- measurementProtocol: Aortic mural gene expression, RT-PCR (TLDA)
- Type: in vivo, ApoE−/− mice
- settings: fold change over ApoE−/− control; aorta, 28 days Ang II infusion
attributeMeasured: Osteopontin expression

[[record]]
molecule = "CC(C)n1c(/C=C/C(O)CC(O)CC(=O)O)c(-c2ccc(F)cc2)c2ccccc21 (stereo not shown) [Fluvastatin]"
attributemeasured = "Osteopontin expression"
reportedvalue = "++++ (>10.1 = ++++)"

[[record]]
molecule = "C[C@H]1c2cccc(O)c2C(=O)C2=C(O)[C@]3(O)C(=O)C(C(N)=O)=C(O)[C@@H](N(C)C)[C@@H]3[C@@H](O)[C@@H]21 [Doxycycline]"
attributemeasured = "Osteopontin expression"
reportedvalue = "++++ (>10.1 = ++++)"


----------
- System: HMOX 1
- measurementProtocol: Aortic mural gene expression, RT-PCR (TLDA)
- Format: in vivo, ApoE−/− mice
- settings: fold change over ApoE−/− control; aorta, 28 days Ang II infusion
attributeMeasured: HMOX 1 expression

[[record]]
compound = "CCCCC1=NC2(CCCC2)C(=O)N1Cc1ccc(-c2ccccc2-c2nnn[nH]2)cc1 [Irbesartan]"
attributemeasured = "HMOX 1 expression"
reportedvalue = "− (0 to 1 = −)"

[[record]]
compound = "CCCc1nc2c(C)cc(-c3nc4ccccc4n3C)cc2n1Cc1ccc(-c2ccccc2C(=O)O)cc1 [Telmisartan]"
attributemeasured = "HMOX 1 expression"
reportedvalue = "− (0 to 1 = −)"

